// reported PI for each item listed
System: TRFP primed T cell cultures
protocol_details: T cell proliferation assay (tritiated thymidine incorporation) of TRFP-primed T cells restimulated with allergens or peptides
Assay type: cell-based, human
condition: Chain #2 TRFP peptides; cat allergic patients; average SI of responding patients multiplied by percent positive
Output spec: single numeric token, no unit.

Given Fel 25: TRFP chain 2 peptide, amino acids 49 - 68 (YVENGLISRVLDGLVMTTIS; UniProt P30440 66-85, looked up, fragment) , report its PI on TRFP primed T cell cultures. 350

Given Fel 17: TRFP chain 2 peptide, amino acids 12 - 33 (DVFFAVANGNELLLDLSLTKVN; UniProt P30440 29-50, looked up, fragment) , report its PI on TRFP primed T cell cultures. 421

Given Fel 29: TRFP chain 2 peptide, amino acids 74 - 92 (MGEAVQNTVEDLKLNTLGR; UniProt P30440 91-109, looked up, fragment) , report its PI on TRFP primed T cell cultures. 259

Given Fel 31-4: TRFP chain 2 peptide, amino acids 14 - 37 (FFAVANGNELLLDLSLTKVNATEP; UniProt P30440 31-54, looked up, fragment) , report its PI on TRFP primed T cell cultures. 622

Given Fel 31-2: TRFP chain 2 peptide, amino acids 14 - 39 (FFAVANGNELLLDLSLTKVNATEPER; UniProt P30440 31-56, looked up, fragment) , report its PI on TRFP primed T cell cultures. 599
